- TARGET_OR_SYSTEM: T1, human LIGHT (TNFSF14), full length, membrane-bound (214E allele) (human, UniProt O43557 1-240)
- T1 construct: also called membrane LIGHT; human membrane LIGHT
- T1 sequence (O43557 whole entry K214E): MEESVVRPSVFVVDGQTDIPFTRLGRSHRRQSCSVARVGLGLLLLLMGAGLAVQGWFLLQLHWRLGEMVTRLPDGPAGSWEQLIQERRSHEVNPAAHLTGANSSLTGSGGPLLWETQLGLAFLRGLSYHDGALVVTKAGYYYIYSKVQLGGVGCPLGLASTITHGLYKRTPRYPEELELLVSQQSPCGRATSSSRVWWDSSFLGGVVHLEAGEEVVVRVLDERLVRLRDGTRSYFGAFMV
- ASSAY_DETAILS: flow cytometry, transiently transfected HEK293FF cells
EC50 reference
Report the value in nM with no unit label.

[[record]]
binder = "2B11 (antibody, human IgG4, V domains shown, chimeric human IgG4 (S-to-P, L-to-E at 248), human CL; also called Parental 2B11) VH: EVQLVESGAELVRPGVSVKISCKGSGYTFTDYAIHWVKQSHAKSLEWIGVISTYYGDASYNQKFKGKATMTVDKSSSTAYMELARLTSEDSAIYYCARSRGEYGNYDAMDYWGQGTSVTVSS VL: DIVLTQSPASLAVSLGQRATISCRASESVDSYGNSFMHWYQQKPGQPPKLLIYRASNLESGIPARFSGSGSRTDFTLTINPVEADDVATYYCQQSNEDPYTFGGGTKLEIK"
endpoint_value = 0.4


Item under review: 3B04 (antibody, human IgG4, V domains shown, chimeric: mouse variable domains on human IgG4 HC (S-to-P and L-to-E at 248) and human CL; also called Parental 3B04; 3B04 chimeric) VH: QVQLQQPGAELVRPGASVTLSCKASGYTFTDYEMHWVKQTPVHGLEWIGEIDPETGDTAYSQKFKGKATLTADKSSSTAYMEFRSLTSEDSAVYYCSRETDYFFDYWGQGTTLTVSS VL: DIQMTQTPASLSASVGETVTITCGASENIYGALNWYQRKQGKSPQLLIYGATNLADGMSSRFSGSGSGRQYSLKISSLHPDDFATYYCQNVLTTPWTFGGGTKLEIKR . Reported EC50?
0.2
